In this section, each of the binders is paired with its reported % Change Compared to pH 7.4 + Calcium.
- target.under.test: T1, recombinant, soluble human ASGR-1 (human, UniProt P07306 62-291)
- T1 construct: biotinylated in the binning assay; also called soluble huASGR-1; Soluble ASGR-1 (Amgen)
- T1 sequence: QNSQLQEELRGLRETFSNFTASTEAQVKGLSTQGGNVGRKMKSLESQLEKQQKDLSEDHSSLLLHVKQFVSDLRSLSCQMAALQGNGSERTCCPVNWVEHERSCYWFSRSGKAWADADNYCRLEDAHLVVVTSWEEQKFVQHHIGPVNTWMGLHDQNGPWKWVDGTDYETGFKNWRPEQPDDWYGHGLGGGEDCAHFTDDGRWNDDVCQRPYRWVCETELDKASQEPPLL
- test.name: Octet BLI dissociation, pH 5.6 minus calcium
Provide the reading as a plain figure in %.

190E6 (antibody, V domains shown, hybridoma mAb) VH: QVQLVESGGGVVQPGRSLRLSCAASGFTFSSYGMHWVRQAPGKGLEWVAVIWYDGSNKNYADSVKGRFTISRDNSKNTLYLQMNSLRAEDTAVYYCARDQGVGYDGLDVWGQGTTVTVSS VL: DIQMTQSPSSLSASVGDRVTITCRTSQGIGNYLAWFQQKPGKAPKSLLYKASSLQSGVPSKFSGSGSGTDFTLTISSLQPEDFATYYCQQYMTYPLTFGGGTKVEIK :: -6

Next binder, % Change Compared to pH 7.4 + Calcium to be filled in.
Q: Report % Change Compared to pH 7.4 + Calcium for 190F8 (antibody, V domains shown, hybridoma mAb) VH: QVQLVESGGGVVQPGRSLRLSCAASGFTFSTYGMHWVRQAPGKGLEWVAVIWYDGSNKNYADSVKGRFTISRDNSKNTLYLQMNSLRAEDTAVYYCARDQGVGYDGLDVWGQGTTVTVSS VL: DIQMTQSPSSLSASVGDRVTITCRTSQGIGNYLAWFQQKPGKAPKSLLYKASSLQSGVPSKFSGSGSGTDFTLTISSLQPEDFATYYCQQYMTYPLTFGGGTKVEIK
Result: -5
